Where these numbers come from: ChEMBL document CHEMBL1275492

- System: Micrococcus
- method.description: Antibacterial activity against Micrococcus spp. obtained from complicated skin and skin structure infections by agar dilution method
- Type: functional
Give measured MIC50 for each item. Keep answers brief.
Expressed in µg/mL, but write only the number.

Please respond with reported MIC50 (system Micrococcus) for C[C@H]1COc2c(N3CCN(C)CC3)c(F)cc3c(=O)c(C(=O)O)cn1c23.C[C@H]1COc2c(N3CCN(C)CC3)c(F)cc3c(=O)c(C(=O)O)cn1c23.O [LEVOFLOXACIN] .
0.5

Please respond with reported MIC50 (system Micrococcus) for CC(=O)NC[C@H]1CN(c2ccc(N3CCOCC3)c(F)c2)C(=O)O1 [LINEZOLID] .
1

Please respond with reported MIC50 (system Micrococcus) for CC[C@H]1OC(=O)[C@H](C)[C@@H](O[C@H]2C[C@@](C)(OC)[C@@H](O)[C@H](C)O2)[C@H](C)[C@@H](O[C@@H]2O[C@H](C)C[C@H](N(C)C)[C@H]2O)[C@](C)(O)C[C@@H](C)C(=O)[C@H](C)[C@@H](O)[C@]1(C)O [ERYTHROMYCIN] .
0.03

###

- System: Staphylococcus aureus
- method.description: Antibacterial activity against methicillin resistant Staphylococcus aureus obtained from complicated skin and skin structure infections by agar dilution method
- Assay type: functional
Give measured MIC50 for each item. Keep answers brief.
Expressed in µg/mL, but write only the number.

Please give measured MIC50 of the following entry: CN[C@H](CC(C)C)C(=O)N[C@H]1C(=O)N[C@@H](CC(N)=O)C(=O)N[C@H]2C(=O)N[C@H]3C(=O)N[C@H](C(=O)N[C@H](C(=O)O)c4cc(O)cc(O)c4-c4cc3ccc4O)[C@H](O)c3ccc(c(Cl)c3)Oc3cc2cc(c3O[C@@H]2O[C@H](CO)[C@@H](O)[C@H](O)[C@H]2O[C@H]2C[C@](C)(N)[C@H](O)[C@H](C)O2)Oc2ccc(cc2Cl)[C@H]1O [VANCOMYCIN]
1

Please give measured MIC50 of the following entry: CC(=O)NC[C@H]1CN(c2ccc(N3CCOCC3)c(F)c2)C(=O)O1 [LINEZOLID]
2

###

Give measured MIC90 for each item. Keep answers brief.
- System: Proteus penneri
- method.description: Antibacterial activity against Proteus penneri obtained from complicated skin and skin structure infections by agar dilution method
- Assay type: functional
Expressed in µg/mL, but write only the number.

Please give measured MIC90 of the following entry: Nc1nc(/C(=N/O)C(=O)N[C@@H]2C(=O)N3C(C(=O)O)=C(/C=C4\CCN([C@@H]5CCNC5)C4=O)CS[C@H]23)ns1
32

Please give measured MIC90 of the following entry: CO/N=C(\C(=O)N[C@@H]1C(=O)N2C(C(=O)[O-])=C(C[N+]3(C)CCCC3)CS[C@H]12)c1csc(N)n1
4

Please give measured MIC90 of the following entry: CC(C)(O/N=C(\C(=O)N[C@@H]1C(=O)N2C(C(=O)[O-])=C(C[n+]3ccccc3)CS[C@H]12)c1csc(N)n1)C(=O)O
16

Please give measured MIC90 of the following entry: NCC[C@H](O)C(=O)N[C@@H]1C[C@H](N)[C@@H](O[C@H]2O[C@H](CN)[C@@H](O)[C@H](O)[C@H]2O)[C@H](O)[C@H]1O[C@H]1O[C@H](CO)[C@@H](O)[C@H](N)[C@H]1O
8

Please give measured MIC90 of the following entry: CO/N=C(\C(=O)N[C@@H]1C(=O)N2C(C(=O)O)=C(CSc3nc(=O)c(O)nn3C)CS[C@H]12)c1csc(N)n1
64

Please give measured MIC90 of the following entry: C[C@H]1COc2c(N3CCN(C)CC3)c(F)cc3c(=O)c(C(=O)O)cn1c23.C[C@H]1COc2c(N3CCN(C)CC3)c(F)cc3c(=O)c(C(=O)O)cn1c23.O
8
